Details: 25 °C
Measurement Type: solubility (mM)

c1ccc2c(c1)-c1ccc3ccc4cccc5cc-2c1c3c45	6.88e-07
c1ccc2c(c1)ccc1ncccc12	0.439
CCCCc1c2ccccc2cc2ccc3ccccc3c12	2.99e-05

I: c1ccc2cnccc2c1
II: Cc1nc2ccccc2[nH]1
# input Pick the one with the larger solubility: I vs II Mark your selection by writing its label.
# output I

* * *

Parameter: solubility. Scope: all listed entries.
Details: 20 °C
Answer in mM, number only, no unit symbol.

c1ccc2[nH]cnc2c1	17

Below: the item to evaluate.
Given item c1ccc2[nH]ncc2c1 , the value recorded as its solubility is 6.99

* * *

Details: 25 °C
Measurement Type: solubility (mM)

Solved entries (count: 2):
Cc1cccc2c1c(C)cc1cc3ccccc3cc12	1.06e-05
c1ccc2c(c1)c1cccc3ccc4cccc2c4c31	1.89e-05

P: Cc1c[nH]c2ccccc12
Q: c1ccc2nccnc2c1
# input Response body: label of entry with the larger solubility; valid values P , Q . Answer by stating the label of the chosen item.
# output Q

src = the OPERA property sets (Mansouri et al. 2018)
